tested on: CAKI-1 renal; experiment: NCI tumour cell line growth inhibition, 48 h; in the data active = GI50 below about 0.43 µM; inactive = the rest
Answer with one of the outcomes Yes for active, No for inactive

Consider the following illustrative entries.
Ask | Entry CC[C@]12C=CCN3CC[C@@]4(c5ccc(OC)cc5N(C)[C@H]4[C@@](O)(C(=O)OC)[C@@H]1OC(=O)CCCC[P+](c1ccccc1)(c1ccccc1)c1ccccc1)[C@@H]32 : call = ?
Reply | No

Ask | Returns: the outcome recorded for CC/C=C\C[C@H](O)C/C=C1/C(=O)C=C[C@@H]1C/C=C\CCCC(=O)OCCS(=O)(=O)c1ccccc1 in this assay.
Reply | No

Ask | Lab log entry: CS(=O)(=O)c1nccc(-c2c(-c3cccc(OCc4ccccc4)c3)nc3sccn23)n1 — outcome as called in the assay?
Reply | No

Ask | Called result for CCCCCCCC(=O)SCC/C=C/[C@@H]1CC(=O)NCc2cccc(n2)C2=N[C@@](C)(CS2)C(=O)N[C@@H](C(C)C)C(=O)O1
Reply | Yes

Ask | Can you look up the reported call for O=C(Nc1ccc(-n2ccc3c(NC(=O)c4ccccc4)ncnc32)cc1)Nc1ccc(Cl)c(C(F)(F)F)c1 for me?
Reply | No

Further cases:
Ask | Test call, this compound: COc1cc(-c2nn(-c3ccc(NC(=O)Nc4ccc(Cl)c(C(F)(F)F)c4)cc3)cc2-c2ccncc2)ccc1Cl
Reply | No

Ask | Please indicate how the test categorized O=c1[nH]ccc2nc(N3CCC(O)CC3)nc(Nc3ccc(N4CCOCC4)cc3)c12 .
Reply | Yes

Ask | Short answer needed: outcome of this test for Cc1cc(NCCCNc2ccnc3cc(Cl)ccc23)nc(Nc2ccc(C(=O)N3CCCCC3)cc2)n1 ?
Reply | No

---

test system: RPMI-8226 leukemia; assay: NCI tumour cell line growth inhibition, 48 h
Where a SMILES comes first, the peptide text is derived from it. [ ]: non-standard residue; d: D form. The star is where a group is joined. Bn2Val = CC(C)[C@@H](C(=O)*)N(Cc1ccccc1)Cc1ccccc1; NHPiperonyl = c1cc2c(cc1CN*)OCO2; NMeV = CN[C@H](C(=O)O)C(C)C; dNMeA = CN[C@H](C)C(=O)O
// TGI lookup, one value per entry
Respond with the bare value in µM.

Worked cases, TGI given:
Item: CCC1CCC2C3CC=C4CC(OC(C)=O)C(N)CC4(C)C3CCC12C (configuration not stated) | TGI: 8.3

Entry Cc1ccc(N/N=C/C2=CC(C)(C)C(C#N)(C#N)C(O)=C2C#N)cc1 — recorded TGI = 93.7

response.value for CC(C)[C@H](NC(=O)[C@H](C(C)C)N(Cc1ccccc1)Cc1ccccc1)C(=O)N(C)[C@H](C(=O)N1CCC[C@H]1C(=O)N(C)[C@H](C)C(=O)NCc1ccc2c(c1)OCO2)C(C)C (Bn2Val-V[NMeV]P[dNMeA]-NHPiperonyl) (field: TGI) = 6.2

Further cases:
For this compound ( COc1ccc(C(=O)OC2C(OC3C(O)COC(O[C@H]4C[C@H]5[C@@H]6CC=C7C[C@@H](O)CC[C@]7(C)[C@H]6CC[C@]5(C)[C@H]4[C@H](C)C(=O)CCC(C)C)C3OC(=O)C(C)C)OCC(O)C2O)cc1 (some centres not stated) ), measured TGI is 0.01

---

TGI values, listed per item
test system: PC-3 prostate; experiment: NCI tumour cell line growth inhibition, 48 h

Past entries and their recorded results:
Form: compound = CCCCCCCCCCCCCCC(C(=O)[O-])[n+]1ccccc1 (centres undefined) ; TGI = 77.6 µM

Data point: S=P(C1CCCCC1)(C1CCCCC1)C(c1cccnc1)N1CCCC1 (centres undefined) ; TGI = 36.9 µM

In plain terms, CSc1n[nH]c2c1c(C)nn2-c1ccccc1 has a documented TGI of > 100 µM

Consider COc1c(N2CCCCC2)c2c(=O)c3ccccc3oc2c2cc(C)oc12 . Its measured TGI is 51.5 µM

Noted for Cn1cc(S(=O)(=O)NC(=O)Nc2ccc(Cl)cc2)c(=O)c2ccc(Cl)cc21 : its TGI reads > 100 µM

Entry CC(=O)NC1C(O)C(O)C(CO)OC1n1nc(SCc2ccccc2)c(=O)[nH]c1=O (centres undefined) — recorded TGI = > 100 µM

The compound listed as C=CC1CC12C(=O)C1OC2(C)C2C(=O)c3c(O)cccc3C(=O)C12 (centres undefined) shows TGI equal to 81.5 µM

TGI in this record for CCOC(=O)CC[C@H](NC(=O)c1ccc(CNc2nc3cc(C(F)(F)F)ccc3nc2C(=O)OCC)cc1)C(=O)OCC : > 89.3 µM

Continuing:
Short answer for O=C(CC(C(=O)c1cccs1)c1ccsc1)c1ccc(Cl)cc1 (centres undefined) : TGI was > 100 µM

// O=C1c2ccccc2-c2nc(-c3cccs3)cc3c2c1nc1ccccc13 : TGI value = > 100 µM

TGI reported for this compound Nc1c(C(=O)c2cccc(C(O)(CO)CO)c2)cnn1-c1ccc(F)cc1 : > 25 µM

O=C1/C(=N/N=C(c2ccccc2)c2ccccc2)c2ccccc2-c2ccccc21 has a reported TGI of > 100 µM

Record O=[N+]([O-])c1ccc(CSc2c3ccccc3nc3ccccc23)cc1 . Reported TGI: 20 µM

The compound listed as CC[C@]12C=CCN3CC[C@@]4(c5ccc(OC)cc5N(C)[C@H]4[C@@](O)(C(=O)OC)[C@@H]1OC(=O)CCCC[P+](c1ccccc1)(c1ccccc1)c1ccccc1)[C@@H]32 has a reported TGI of 7.77 µM

COC1=CC(=O)c2c(O)c3c(c(O)c2C1=O)OC1(Oc2c(cc4cc(C)oc(=O)c4c2O)CC1O)C3O (centres undefined) has a reported TGI of > 100 µM

Form: compound = O=C1CSC(c2c[nH]c3ccccc23)N1c1cccc([N+](=O)[O-])c1 (centres undefined) ; TGI = > 100 µM

Summary for this compound, c1ccc(C2(c3ccccc3)S/C(=C3/SC(c4ccccc4)(c4ccccc4)c4ccccc43)c3ccccc32)cc1 : TGI is > 100 µM

Consider CC(=O)N(C(=O)CC(=O)NNCc1ccccc1Cl)c1ccc(Cl)cc1 . Its measured TGI is > 10 µM

TGI for CCCCCCCCCCCCCCCCC(=O)NCC(=O)NCC(=O)NC(Cc1ccccc1)C(=O)Oc1ccc([N+](=O)[O-])cc1 (centres undefined) is 86.6 µM

---

tested on: SF-295 CNS; assay: NCI tumour cell line growth inhibition, 48 h
MEASUREMENT TYPE: TGI (µM)
Kindly answer with a numeric value in µM, unit omitted.

Form field TGI, entry COC(=O)c1c(O)ccc2c1c1cc3ccccc3c(O)c1n2Cc1ccccc1Cl : 40.3

Continue with the compound presented below.
Query Cc1c(C)n(CC(O)CNC2CCCCC2C)c2ccccc12 (centres undefined) yields TGI of 28.2

---

Let's look at some compounds and their measured TGI.
tested on: 786-0 renal; experiment: NCI tumour cell line growth inhibition, 48 h

For O=S(Cc1cnc2ccccc2c1)c1nc2ccccc2nc1-c1cccs1 (stereo unspecified) the compound record lists TGI as 27.3 µM

***
The recorded TGI for CCOc1cc(/C=N\O)cc(/C=N/O)c1O is > 100 µM

So, CN(C(=N)c1ccccc1)c1ccccc1 ? Its TGI was > 100 µM

Per the records, this compound ( CC[C@@]1(O)C(=O)OCc2c1cc1n(c2=O)Cc2cc3c([N+](=O)[O-])c(O)ccc3nc2-1 ) has TGI equal to 0.432 µM

Please fill in: TGI reported for CC(=O)N(CN1C(=O)CCC1C(=O)O)c1ccc(C)cc1 (stereo unspecified) = > 100 µM

CN(C)CCNC(=O)c1ccccc1Nc1c(Cl)cccc1Cl yielded TGI of 18.9 µM

Entry COc1ccc(/C=C/C(=O)c2c(-c3ccccc3)nn(C)c(=O)c2N2CCCC2)cc1 ; TGI = > 100 µM

// recorded TGI for COc1ccc2c(c1)CC[C@@H]1C2CC[C@]2(C)C(=N\O)/C(=N/O)CC12 (stereo partly specified) : 31.8 µM

Lookup result for CCN1C(=O)/C(=C\c2coc3ccccc3c2=O)SC1=S ; measured TGI: > 100 µM

Sure, the documented TGI for C=CC1CC12C(=O)C1OC2(C)C2C(=O)c3c(O)cccc3C(=O)C12 (stereo unspecified) is > 100 µM

Looking up COc1c(N2CCCCC2)c2c(=O)c3ccccc3oc2c2cc(C)oc12 , I found its TGI recorded as > 100 µM

---

test system: NCI-H23 lung; assay: NCI tumour cell line growth inhibition, 48 h
Is TGI at least 20 µM? Then Yes. If not, No.

# count of solved cases: 5
Ask | Answer whether TGI of CN1C(=O)C(C)(C)NS1(=O)=O is greater than or equal to 20 µM.
Reply | Yes

Ask | Does C=CC1CC12C(=O)C1OC2(C)C2C(=O)c3c(O)cccc3C(=O)C12 (stereo unspecified) have a reported TGI of at least 20 µM?
Reply | Yes

Ask | I'd appreciate it if you could say whether C[C@@]1([C@H](OC(=O)c2cccc3ccccc23)C(N)=O)CO1 has TGI at least equal to 20 µM.
Reply | No

Ask | # check: TGI of CC1(C)CC(=O)c2c([nH]c(=S)c(C#N)c2-c2ccc(Br)cc2)C1 is greater than or equal to 20 µM
Reply | Yes

Ask | # bool: TGI of c1cc2c(cc1NC1=NCCO1)CCCC2 >= 20 µM
Reply | No

More entries:
Ask | Please indicate if the recorded TGI for O=S(Cc1cnc2ccccc2c1)c1nc2ccccc2nc1-c1cccs1 (stereo unspecified) meets or exceeds 20 µM.
Reply | Yes

Ask | Is the recorded value of TGI equal to or greater than 20 µM for this molecule? CCCCCCCCCCCCCCCCC(=O)NCC(=O)NCC(=O)NC(Cc1ccccc1)C(=O)Oc1ccc([N+](=O)[O-])cc1 (stereo unspecified)
Reply | Yes

Ask | Does COc1cc(-c2nn(-c3ccc(NC(=O)Nc4ccc(Cl)c(C(F)(F)F)c4)cc3)cc2-c2ccncc2)ccc1Cl have a reported TGI of at least 20 µM?
Reply | No

Ask | Quick check, TGI >= 20 µM? COc1ccc(NC(=O)COc2ccccc2)c(C(N)=O)c1
Reply | Yes

Ask | hey, is TGI for this one >= 20 µM? CCCCCCN(CCCCCC)C1=CC(=O)C(=O)c2ccccc21
Reply | Yes

Ask | Could you tell me if the measured TGI of NCc1ccc(O)c(O)c1O reaches 20 µM or more?
Reply | Yes
